Origin of measurements: the supplement of paper PMC4723716

Reported IC50 of gametocyte viability by item:
- Test system: Plasmodium falciparum NF54 gametocytes
- Condition notes: gametocyte stage: Stage V Dose Response IC50 (µM); assay protocol: SaLSSA, 384; incubation time: 72 h
Counter-ions that a name gives are not always drawn.

{"columns": ["Molecule", "Obs value"],
 "data": [
  ["COc1ccc2nc3cc(Cl)ccc3c(Nc3cc(CN4CCCC4)c(O)c(CN4CCCC4)c3)c2n1 [Pyronaridine phosphate]", "2.08 µM"],
  ["C[C@H]1[C@H](OC(=O)CCC(=O)O)O[C@@H]2O[C@@]3(C)CC[C@H]4[C@H](C)CC[C@@H]1[C@@]24OO3 [Artesunate]", "> 10.6 µM"],
  ["Nc1ccc(S(=O)(=O)c2ccc(N)cc2)cc1 [Dapsone]", "> 12.5 µM"],
  ["CCN(CC)CCCC(C)Nc1cc(OC)cc2cccnc12 (stereo not given) [Pamaquine (diethlyprimaquine)]", "2.53 µM"],
  ["CC(=O)N(O)CCCCCNC(=O)CCC(=O)N(O)CCCCCNC(=O)CCC(=O)N(O)CCCCCN [Deferoxamine mesylate salt]", "> 12.5 µM"]
]}

In: Provide value of IC50 of gametocyte viability for this record tested with Plasmodium falciparum NF54 gametocytes: C(CN1CCOCC1)Oc2ccc(cc2)[C@@H]3CC[C@@]4(CC3)OO[C@@]5(O4)[C@@H]6CC7C[C@@H](CC5C7)C6 [OZ 439 mesylate]
Out: > 12.5 µM

In: Try CCC[C@@H]1C[C@@H](C(=O)N[C@@H]([C@H]2O[C@H](SC)[C@H](O)[C@@H](O)[C@H]2O)[C@H](C)Cl)N(C)C1 [clindamycin] next.
Out: > 12.5 µM
